Data provenance is patent US20080176827A1.

Here the recorded IC50 is given for each entry.
TEST SYSTEM: P2Y12 receptor (Homo sapiens)
Construct: expressed in transfected cells; host or cells: CHO cells (membranes)
Sequence (Q9H244 whole entry): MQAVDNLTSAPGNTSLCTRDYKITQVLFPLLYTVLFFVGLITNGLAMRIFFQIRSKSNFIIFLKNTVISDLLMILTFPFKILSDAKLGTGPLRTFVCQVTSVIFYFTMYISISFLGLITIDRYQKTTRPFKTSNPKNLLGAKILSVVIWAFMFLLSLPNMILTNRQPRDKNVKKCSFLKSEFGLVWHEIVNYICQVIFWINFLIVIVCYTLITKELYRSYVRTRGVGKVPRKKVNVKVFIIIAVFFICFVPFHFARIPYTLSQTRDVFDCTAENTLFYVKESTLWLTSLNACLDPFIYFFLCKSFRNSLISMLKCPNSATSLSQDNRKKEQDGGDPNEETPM
ASSAY INFO: Functional inhibition of 2-Me-S-ADP induced P2Y12 signalling (35S-GTPγS binding, membranes from P2Y12 transfected CHO-cells)
Type: biochemical
COND: EC80 agonist, CHO-cell membranes, value given in each example, read-out: GTPγS(IC50 μM)

- MOLECULE: "CCOC(=O)c1cc(C#N)c(N2CCC(C(=O)NS(=O)(=O)Cc3ccc(F)cc3Cl)CC2)nc1CC [Example 16]"
  IC50, µM: 0.211
- MOLECULE: "CCOC(=O)c1cc(C#N)c(N2CCC(C(=O)NS(=O)(=O)Cc3ccccc3)CC2)nc1NC [Example 6]"
  IC50, µM: 0.044
- MOLECULE: "CCOC(=O)c1cc(C#N)c(N2CCC(C(=O)NS(=O)(=O)Cc3cc(F)ccc3C)CC2)nc1C [Example 12]"
  IC50, µM: 0.49
- MOLECULE: "CCOC(=O)c1cc(C#N)c(N2CC(C(=O)NS(=O)(=O)Cc3ccc(Cl)cc3)C2)nc1CC [Example 23]"
  IC50, µM: 0.022

----------
TEST SYSTEM: P2Y12 receptor (Homo sapiens)
Construct: expressed in transfected cells; host or cells: CHO cells (membranes)
ASSAY INFO: Functional inhibition of 2-Me-S-ADP induced P2Y12 signalling (35S-GTPγS binding, membranes from P2Y12 transfected CHO-cells)
Type: biochemical
COND: EC80 agonist, CHO-cell membranes, value given in each example, read-out: GTPγS(IC50 μM)
Procedure: Functional inhibition of-the P2Y12 receptor can be measured by in vitro assays using cell membranes from P2Y12 transfected CHO-cells, the methodology is indicated below. […] The reaction was allowed to proceed at 30° C. for 45 min. […] Filters were then covered with scintilant and counted for the amount of ^35S-GTPγS retained by the filter. […] Filters were then covered with scintilant and counted for the amount of ^35S-GTPγS retained by the filter. […]

- MOLECULE: "CCOC(=O)c1cc(C#N)c(N2CC(C(=O)NS(=O)(=O)Cc3ccc(F)cc3Cl)C2)nc1CC"
  TEST SYSTEM: "P2Y12 receptor (Homo sapiens)"
  IC50 / µM: 0.036
- MOLECULE: "CCOC(=O)c1cc(C#N)c(N2CCC(C(=O)NS(=O)(=O)Cc3ccc(F)cc3)CC2)nc1CC"
  TEST SYSTEM: "P2Y12 receptor (Homo sapiens)"
  IC50 / µM: 0.036
- MOLECULE: "CCOC(=O)c1cc(C#N)c(N2CCC(C(=O)NS(=O)(=O)Cc3cccc(OC)c3)CC2)nc1C"
  TEST SYSTEM: "P2Y12 receptor (Homo sapiens)"
  IC50 / µM: 0.074
- MOLECULE: "CCOC(=O)c1cc(C#N)c(N2CCC(C(=O)NS(=O)(=O)Cc3ccc(F)cc3F)CC2)nc1C"
  TEST SYSTEM: "P2Y12 receptor (Homo sapiens)"
  IC50 / µM: 0.016
- MOLECULE: "CCOC(=O)c1cc(C#N)c(N2CCC(C(=O)NS(=O)(=O)Cc3cc(C)ccc3F)CC2)nc1C"
  TEST SYSTEM: "P2Y12 receptor (Homo sapiens)"
  IC50 / µM: 0.035
- MOLECULE: "CCOC(=O)c1cc(C#N)c(N2CC(C(=O)NS(=O)(=O)Cc3ccc(F)cc3)C2)nc1CC"
  TEST SYSTEM: "P2Y12 receptor (Homo sapiens)"
  IC50 / µM: 0.041
- MOLECULE: "CCOC(=O)c1cc(C#N)c(N2CCC(C(=O)NS(=O)(=O)Cc3ccc(F)cc3F)C(CCC(=O)OCc3ccccc3)C2)nc1C (stereo not drawn)"
  TEST SYSTEM: "P2Y12 receptor (Homo sapiens)"
  IC50 / µM: 0.382
- MOLECULE: "CCOC(=O)c1cc(C#N)c(N2CCC(C(=O)NS(=O)(=O)Cc3ccc(Cl)cc3)CC2)nc1CC"
  TEST SYSTEM: "P2Y12 receptor (Homo sapiens)"
  IC50 / µM: 0.04
- MOLECULE: "CCOC(=O)c1cc(C#N)c(N2CC(C(=O)NS(=O)(=O)Cc3ccc(F)cc3F)C2)nc1CC"
  TEST SYSTEM: "P2Y12 receptor (Homo sapiens)"
  IC50 / µM: 0.03
- MOLECULE: "CCOC(=O)c1cc(C#N)c(N2CCC(C(=O)NS(=O)(=O)Cc3c(F)ccc(F)c3F)CC2)nc1CC"
  TEST SYSTEM: "P2Y12 receptor (Homo sapiens)"
  IC50 / µM: 0.097
- MOLECULE: "CCOC(=O)c1cc(C#N)c(N2CCC(CC(=O)NS(=O)(=O)CCc3ccccc3)C2)nc1C (stereo not drawn)"
  TEST SYSTEM: "P2Y12 receptor (Homo sapiens)"
  IC50 / µM: 0.12
- MOLECULE: "CCOC(=O)c1cc(C#N)c(N2CC(C(=O)NS(=O)(=O)Cc3cc(C)ccc3F)C2)nc1C"
  TEST SYSTEM: "P2Y12 receptor (Homo sapiens)"
  IC50 / µM: 0.018
- MOLECULE: "CCOC(=O)c1cc(C#N)c(N2CCC(C(=O)NS(=O)(=O)Cc3ccccc3F)CC2)nc1C"
  TEST SYSTEM: "P2Y12 receptor (Homo sapiens)"
  IC50 / µM: 0.026
- MOLECULE: "CCOC(=O)c1cc(C#N)c(N2CCC(C(=O)NS(=O)(=O)Cc3ccccc3)C(CCC(=O)OCc3ccccc3)C2)nc1C (stereo not drawn)"
  TEST SYSTEM: "P2Y12 receptor (Homo sapiens)"
  IC50 / µM: 0.442
- MOLECULE: "CCOC(=O)c1cc(C#N)c(N2CC(C(=O)NS(=O)(=O)Cc3ccc(F)c(C)c3)C2)nc1CC"
  TEST SYSTEM: "P2Y12 receptor (Homo sapiens)"
  IC50 / µM: 0.064
